Test system: UACC-62 melanoma
Experiment: NCI-60 one-dose screen, 48 h
Details: 10 µM unless noted
Compounds without any hit were thinned out: in the full panel of roughly 83,000, 20% have a hit. Calls of active or inactive are those of the source. The calls were made as follows: active = growth percent below 10; inactive = the rest.
Outcomes: active, inactive

| Compound | System Under Test | Label |
| --- | --- | --- |
| CCn1cc(C(=O)N/N=C/c2ccccc2)c(=O)c2cc(F)c(N3CCNC(C)C3)c(F)c21 (configuration not stated) | UACC-62 melanoma | active |
| Cc1nc2sc(C(=O)Nc3cccc(Cl)c3C)c(N)c2cc1C(=O)/C=C/c1ccccc1 | UACC-62 melanoma | active |
| Cc1c(O)cc(-c2cnc(N/N=C/c3ccccc3)s2)c(O)c1C | UACC-62 melanoma | inactive |
| COc1ccc(N=C2NN=C(c3c[nH]c4ccccc34)CS2)cc1OC | UACC-62 melanoma | inactive |
| Nc1cc(C(=O)O)cc(-n2c(O)c(C=C3N=c4ccccc4=N3)sc2=S)c1 | UACC-62 melanoma | inactive |
| CN1c2ccccc2S(=O)(=O)n2c(SCC(=O)Nc3nc4ccc(F)cc4s3)nnc21 | UACC-62 melanoma | inactive |
| Cc1cccc(-c2nc(C(C)C)sc2-c2ccnc(NCCCNS(=O)(=O)c3ccc(Cl)cc3)c2)c1 | UACC-62 melanoma | inactive |
| O=C(CN1C(=O)S/C(=C\C(Cl)=C\c2ccccc2)C1=O)NC1CCS(=O)(=O)C1 (configuration not stated) | UACC-62 melanoma | inactive |
| O=C(NCCCCCCNC(=O)OCc1ccc2c(Cl)cc(Cl)c(O)c2n1)OCc1ccc2c(Cl)cc(Cl)c(O)c2n1 | UACC-62 melanoma | active |
| Cc1nc2sc(C(=O)Nc3ccccn3)c(N)c2cc1C(C)O (configuration not stated) | UACC-62 melanoma | inactive |
| COc1ccc(Nc2ncc(C#N)c(NCCCNC(=O)C3CCC3)n2)cc1 | UACC-62 melanoma | inactive |
| CCNC(=O)N1CCc2c(Br)c3c(c(OC)c2C1Cc1ccc(OC)cc1)OCO3 (configuration not stated) | UACC-62 melanoma | inactive |

* * *

Test system: SNB-19 CNS
Assay: NCI-60 one-dose screen, 48 h (100 = growth as untreated, 0 = no growth, -100 = all killed)
Details: 10 µM unless noted
Method: Growth inhibition of the SNB-19 human tumor cell line is measured as a screen for anti-cancer activity. Cells are grown in 96 well plates and exposed to the test compound for 48 hours. Compounds are tested at a single concentration, which is 10^-5 M for most compounds. The reported endpoint is percent growth (GI% or GIPRCNT), where numbers from 0 - 100% represent growth inhibition, and numbers from -100% - 0 represent cell death. For example, a value of 40 represents 60% growth inhibition. […]
The panel holds about 83,000 compounds, 20% with a hit somewhere; the sample as a whole holds those more often. Activity calls are given as the source filed them. The calls were made as follows: active = growth percent below 10; inactive = the rest.
As shown below, each of these compounds has a reported growth value.

| Compound | growth |
| --- | --- |
| COc1cc2c3c(c4c5ccccc5[nH]c4c2c(OC)c1OC)C(=O)N(CCN1CCCCC1)C3=O | 30.1% (inactive) |
| C/C(=C(\c1ccc(OCCN2CCCCCC2)cc1)c1ccc(OC(=O)c2ccccc2)cc1)c1ccc(Cl)cc1 | 57.9% (inactive) |
| CN(C)c1ccc(CNCCO)cc1 | 98.5% (inactive) |
| O=C1CCC(C(=O)N/N=C/c2cc(F)ccc2F)N1 (stereo not drawn) | 98.9% (inactive) |
| Cn1c(=O)c2[nH]c(SC/C(=N/O)c3ccc(Br)cc3)nc2n(C)c1=O | 38.6% (inactive) |
| C#CCOc1ccc2nc(CCl)c(Cl)c(Nc3cccc(C(F)(F)F)c3)c2c1 | 98.5% (inactive) |
| CN(C)CCn1c(=O)c2ccccc2n2nc3ccccc3c12 | 78.1% (inactive) |
| C/C(=N\Nc1ccccc1)c1ccc(NC2=CC(=O)c3ccccc3C2=O)cc1 | 85.7% (inactive) |
| O=C(NC1CCC(Br)CC1)C1CCCC(S(=O)(=O)NC2CCCCC2)C1 (stereo not drawn) | 26.8% [25 µM] (inactive) |
| N=C(N)c1ccc(OCCSCCOc2ccc(C(=N)N)cc2)cc1 | 56.7% (inactive) |
| O=C(/C=C/c1ccccc1)N(C1CCCCC1)C1CCCCC1 | 87.7% (inactive) |
| Cc1ccc(S(=O)(=O)OC[C@]23CCC(C)(C)C[C@H]2C2=CC[C@@H]4[C@@]5(C)CCCNC(C)(C)[C@@H]5CC[C@@]4(C)[C@]2(C)CC3)cc1 | 85.7% (inactive) |
| Cc1ccccc1N1CCN(C(=S)c2ccccc2)CC1 | 98.8% (inactive) |
